molecular target: human DPP-4 (Homo sapiens, UniProt P27487); construct: during isolation the entire transmembrane domain (including His tag) is removed by proteases present in the CHO cells; His tag (enterokinase-cleavable, from pcDNA4/HisMax) (N, cleaved yes); assay: DPP-4 inhibition assay (cleavage of pseudosubstrate Gly-Pro-pNA, absorbance at 405 nm); conditions: recombinant human DPP-4, steady state, Gly-Pro-pNA 120 or 1000 μM, pH 7.4, 40 min preincubation; IC50 converted to Ki assuming competitive inhibition; read-out: DPP4 Ki
Sequence (P27487 29-766 limits assumed): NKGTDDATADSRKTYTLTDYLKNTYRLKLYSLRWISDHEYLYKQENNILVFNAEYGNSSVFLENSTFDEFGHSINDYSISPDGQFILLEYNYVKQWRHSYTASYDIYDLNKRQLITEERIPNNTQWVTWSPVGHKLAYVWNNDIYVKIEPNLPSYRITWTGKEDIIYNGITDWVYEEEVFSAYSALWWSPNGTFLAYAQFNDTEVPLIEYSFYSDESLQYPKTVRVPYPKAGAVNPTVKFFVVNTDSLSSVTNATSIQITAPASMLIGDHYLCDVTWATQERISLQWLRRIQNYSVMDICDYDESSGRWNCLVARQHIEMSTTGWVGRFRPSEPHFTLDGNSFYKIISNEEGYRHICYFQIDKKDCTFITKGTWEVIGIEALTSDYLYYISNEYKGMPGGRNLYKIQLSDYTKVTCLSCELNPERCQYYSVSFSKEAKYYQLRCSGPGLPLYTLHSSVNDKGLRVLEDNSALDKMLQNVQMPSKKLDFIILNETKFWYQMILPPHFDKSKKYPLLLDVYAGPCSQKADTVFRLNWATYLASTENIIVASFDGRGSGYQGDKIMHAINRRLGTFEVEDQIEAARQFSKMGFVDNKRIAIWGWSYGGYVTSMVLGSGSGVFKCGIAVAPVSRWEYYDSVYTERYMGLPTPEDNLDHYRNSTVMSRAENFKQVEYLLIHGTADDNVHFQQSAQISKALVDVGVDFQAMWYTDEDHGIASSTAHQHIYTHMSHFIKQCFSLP
Where a name gives a salt, the structure may show the parent alone.
measurement.label: Ki

- molecule: "COc1ccccc1N1CCc2nc(C)c(CN)c(-c3ccc(Cl)cc3Cl)c2C1=O [Example 18, TFA Salt]"
  subject.of.test: "human DPP-4 (Homo sapiens, UniProt P27487)"
  value.reported: "2.28 nM"
- molecule: "Cc1nc2c(c(-c3ccc(Cl)cc3Cl)c1CN)C(=O)N(CCO)CC2 [Example 16, TFA salt]"
  subject.of.test: "human DPP-4 (Homo sapiens, UniProt P27487)"
  value.reported: "18 nM"
- molecule: "Cc1nc2c(c(-c3ccc(Cl)cc3Cl)c1CN)C(=O)N(CC(=O)N1CCOCC1)CC2 [Example 12, TFA salt]"
  subject.of.test: "human DPP-4 (Homo sapiens, UniProt P27487)"
  value.reported: "4.43 nM"
- molecule: "COCCN1CCc2nc(C)c(CN)c(-c3ccc(Cl)cc3Cl)c2C1=O [Example 15, TFA salt]"
  subject.of.test: "human DPP-4 (Homo sapiens, UniProt P27487)"
  value.reported: "5.39 nM"
- molecule: "Cc1nc2c(c(-c3ccc(Cl)cc3Cl)c1CN)C(=O)N(CC(=O)N(C)C)CC2 (single isomer, unassigned) [Example 4, TFA salt]"
  subject.of.test: "human DPP-4 (Homo sapiens, UniProt P27487)"
  value.reported: "39.7 nM"
- molecule: "Cc1nc2c(c(-c3ccc(Cl)cc3Cl)c1CN)C(=O)N(CC(=O)N1CCC(N3CCCCC3=O)CC1)CC2 [Example 11, TFA salt]"
  subject.of.test: "human DPP-4 (Homo sapiens, UniProt P27487)"
  value.reported: "49.2 nM"
- molecule: "Cc1nc2c(c(-c3ccc(Cl)cc3Cl)c1CN)C(=O)N(C)CC2 [Example 13, TFA salt]"
  subject.of.test: "human DPP-4 (Homo sapiens, UniProt P27487)"
  value.reported: "7.72 nM"
- molecule: "Cc1nc2c(c(-c3ccc(Cl)cc3Cl)c1CN)C(=O)N(CC(=O)N1CCCC1)CC2 [Example 9, TFA salt]"
  subject.of.test: "human DPP-4 (Homo sapiens, UniProt P27487)"
  value.reported: "3.5 nM"
- molecule: "Cc1nc2c(c(-c3ccc(Cl)cc3Cl)c1CN)C(=O)N(C[C@@H]1CCCO1)CC2 [Example 14, TFA salt]"
  subject.of.test: "human DPP-4 (Homo sapiens, UniProt P27487)"
  value.reported: "5.91 nM"
- molecule: "Cc1nc2c(c(-c3ccc(Cl)cc3Cl)c1CN)C(=O)NCC2 [Example 1, HCl salt]"
  subject.of.test: "human DPP-4 (Homo sapiens, UniProt P27487)"
  value.reported: "6.9 nM"
- molecule: "Cc1nc2c(c(-c3ccccc3Cl)c1CN)C(=O)N(CC(=O)N(C)C)CC2 (single isomer, unassigned) [Example 5, TFA Salt]"
  subject.of.test: "human DPP-4 (Homo sapiens, UniProt P27487)"
  value.reported: "> 100 nM"
- molecule: "Cc1nc2c(c(-c3ccccc3Cl)c1CN)C(=O)N(CC(=O)N(C)C)CC2 (single isomer, unassigned) [Example 3, TFA salt]"
  subject.of.test: "human DPP-4 (Homo sapiens, UniProt P27487)"
  value.reported: "37.8 nM"
- molecule: "Cc1nc2c(c(-c3ccc(Cl)cc3Cl)c1CN)C(=O)N(CC(N)=O)CC2 [Example 6, TFA salt]"
  subject.of.test: "human DPP-4 (Homo sapiens, UniProt P27487)"
  value.reported: "3.44 nM"
- molecule: "CCN(CC)C(=O)CN1CCc2nc(C)c(CN)c(-c3ccc(Cl)cc3Cl)c2C1=O [Example 8, TFA salt]"
  subject.of.test: "human DPP-4 (Homo sapiens, UniProt P27487)"
  value.reported: "3.82 nM"
- molecule: "Cc1nc2c(c(-c3ccc(Cl)cc3Cl)c1CN)C(=O)N(c1ccccc1)CC2 [Example 17, TFA salt]"
  subject.of.test: "human DPP-4 (Homo sapiens, UniProt P27487)"
  value.reported: "5 nM"
